meta.source: ChEMBL document CHEMBL4619724

- Tested on: PC-3
- protocol.text: Antiproliferative activity against human PC3 cells incubated for 24 hrs by CCK8 assay
- Type: functional, cell-based
- details: PC-3, 24 h
// pIC50 lookup, one value per entry
In plain terms, pIC50 is the concentration in mol/L turned into minus its base-10 logarithm.

What value of measured pIC50 is listed for "CN(C)S(=O)(=O)c1ccc(NCCCCCCC(=O)NO)c2nonc12" ?
4.28

Consider the additional compound presented here.
What value of measured pIC50 is listed for "CN(C)S(=O)(=O)c1ccc(NCCCCCC(=O)NO)c2nonc12" ?
4.51
